These entries and their values trace back to patent US20050043378A1.

- TARGET SYSTEM: recombinant human LTA4 hydrolase (rhLTA4H) (Homo sapiens, UniProt P09960)
- Sequence (P09960 whole entry): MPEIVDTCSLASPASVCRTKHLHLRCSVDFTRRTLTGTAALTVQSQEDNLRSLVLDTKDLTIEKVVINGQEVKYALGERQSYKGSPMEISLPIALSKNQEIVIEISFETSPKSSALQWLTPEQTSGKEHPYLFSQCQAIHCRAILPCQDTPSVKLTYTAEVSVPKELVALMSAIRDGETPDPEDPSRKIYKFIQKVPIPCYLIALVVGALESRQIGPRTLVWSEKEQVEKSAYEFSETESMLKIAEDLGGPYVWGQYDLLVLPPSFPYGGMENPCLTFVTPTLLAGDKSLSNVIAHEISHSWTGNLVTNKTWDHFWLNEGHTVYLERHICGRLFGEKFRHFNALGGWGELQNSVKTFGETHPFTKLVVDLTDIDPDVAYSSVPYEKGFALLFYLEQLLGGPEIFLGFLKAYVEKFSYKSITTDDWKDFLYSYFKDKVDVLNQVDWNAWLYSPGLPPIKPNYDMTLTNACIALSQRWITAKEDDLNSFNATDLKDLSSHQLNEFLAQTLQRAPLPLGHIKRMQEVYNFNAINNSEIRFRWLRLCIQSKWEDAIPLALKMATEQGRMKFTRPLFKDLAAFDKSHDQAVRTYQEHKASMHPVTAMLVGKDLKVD
- ASSAY METHOD TEXT: Recombinant human LTA4 hydrolase assay for LTA4 hydrolase inhibitor activity
- CONDITION DESCRIPTION: LTA4 substrate, LTB4 by immunoassay, average of one to three determinations
Lab note - cut at 10 nM for IC50: MET if strictly below, NOT MET if not.

For O=C1C[C@@H](O)CN1C1CCN(CCc2ccc(Oc3nc4ccccc4s3)cc2)CC1 , is the recorded IC50 below the cut-off of 10 nM?
NOT MET

For O=C(O)[C@@H]1CCCC[C@H]1NCCc1ccc(Oc2nc3ccccc3s2)cc1 , is the recorded IC50 below the cut-off of 10 nM?
NOT MET

For O=C(O)CN1CCN(Cc2ccc(Oc3nc4ccccc4s3)cc2)CC1 , is the recorded IC50 below the cut-off of 10 nM?
NOT MET

For CC(=O)N(C)C1CCN(Cc2ccc(Oc3nc4ccccc4s3)cc2)CC1 , is the recorded IC50 below the cut-off of 10 nM?
NOT MET

For OC1(c2ccccc2)CCN(Cc2ccc(Oc3nc4ccccc4s3)cc2)CC1 , is the recorded IC50 below the cut-off of 10 nM?
NOT MET

For NC(=O)C1CCN(CCOc2ccc(Cc3nc4ccccc4s3)cc2)CC1 , is the recorded IC50 below the cut-off of 10 nM?
NOT MET

For OC(COc1ccc(Oc2nc3ccccc3o2)cc1)CN1CCCC1 (stereo not drawn) , is the recorded IC50 below the cut-off of 10 nM?
NOT MET

For OCCN(CCc1ccc(Oc2nc3ccccc3s2)cc1)CC1CC1 , is the recorded IC50 below the cut-off of 10 nM?
MET

For CC(C)(C)OC(=O)N1CCC(c2nnnn2CCOc2ccc(Oc3nc4ccccc4s3)cc2)CC1 , is the recorded IC50 below the cut-off of 10 nM?
NOT MET

For NC(=O)CCN(CCc1ccc(Oc2nc3ccccc3s2)cc1)C1CC1 , is the recorded IC50 below the cut-off of 10 nM?
NOT MET

For O=C1C[C@@H](O)CN1C1CCN(CCOc2ccc(Oc3nc4ccccc4s3)cc2)CC1 , is the recorded IC50 below the cut-off of 10 nM?
NOT MET

For COC(=O)NC1CCN(Cc2ccc(Oc3nc4ccccc4s3)cc2)CC1 , is the recorded IC50 below the cut-off of 10 nM?
MET

For O=C(O)C1CCCN(CCc2ccc(Oc3nc4ccccc4s3)cc2)C1 (stereo not drawn) , is the recorded IC50 below the cut-off of 10 nM?
MET

For O=S(=O)(c1ccc(Cl)cc1)N(C1CC1)C1CCN(CCOc2ccc(Oc3nc4ccccc4s3)cc2)CC1 , is the recorded IC50 below the cut-off of 10 nM?
NOT MET

For O=C(O)CCN(CCc1ccc(Oc2nc3ccccc3s2)cc1)Cc1ccccc1 , is the recorded IC50 below the cut-off of 10 nM?
MET

For O=C(Cc1ccccc1)NC1CCN(CCc2ccc(Oc3nc4ccccc4s3)cc2)CC1 , is the recorded IC50 below the cut-off of 10 nM?
NOT MET

For CCOC(=O)C1CCN(CCOc2ccc(Oc3nc4ccccc4[nH]3)cc2)CC1 , is the recorded IC50 below the cut-off of 10 nM?
NOT MET

For CCN(CC)CCOc1ccc(Oc2nc3ccccc3o2)cc1 , is the recorded IC50 below the cut-off of 10 nM?
NOT MET

For CN(C)CCCOc1ccc(Oc2nc3ccccc3o2)cc1 , is the recorded IC50 below the cut-off of 10 nM?
NOT MET

For c1ccc2sc(Oc3ccc(CCN4CCN(CCN5CCOCC5)CC4)cc3)nc2c1 , is the recorded IC50 below the cut-off of 10 nM?
NOT MET

For O=C1CCCN1C1CCN(CCOc2ccc(Oc3nc4ccccc4[nH]3)cc2)CC1 , is the recorded IC50 below the cut-off of 10 nM?
NOT MET

For O=C(Cc1ccccc1)NC1CCN(CCOc2ccc(Oc3nc4ccccc4o3)cc2)CC1 , is the recorded IC50 below the cut-off of 10 nM?
MET

For CCOC(=O)NC1CCN(Cc2ccc(Oc3nc4ccccc4s3)cc2)CC1 , is the recorded IC50 below the cut-off of 10 nM?
NOT MET

For c1ccc2sc(Oc3ccc(OCCN4CCC(N5CCCCC5)CC4)cc3)nc2c1 , is the recorded IC50 below the cut-off of 10 nM?
NOT MET

For OC1CCN(CCOc2ccc(Oc3nc4ccccc4[nH]3)cc2)CC1 , is the recorded IC50 below the cut-off of 10 nM?
NOT MET

For O=C1C[C@H](O)CN1C1CCN(CCOc2ccc(Oc3nc4ccccc4s3)cc2)CC1 , is the recorded IC50 below the cut-off of 10 nM?
NOT MET

For OCC1CCCN(CCc2ccc(Oc3nc4ccccc4s3)cc2)C1 (stereo not drawn) , is the recorded IC50 below the cut-off of 10 nM?
MET

For CN(C1CCN(Cc2ccc(Oc3nc4ccccc4s3)cc2)CC1)S(C)(=O)=O , is the recorded IC50 below the cut-off of 10 nM?
MET

For O=C(O)[C@@H]1CCCN(CCc2ccc(Oc3nc4ccccc4s3)cc2)C1 , is the recorded IC50 below the cut-off of 10 nM?
NOT MET

For OC1CCN(CCc2ccc(Oc3nc4ccccc4o3)cc2)CC1 , is the recorded IC50 below the cut-off of 10 nM?
MET

For OCC1CCCN(CCOc2ccc(Oc3nc4ccccc4s3)cc2)C1 (stereo not drawn) , is the recorded IC50 below the cut-off of 10 nM?
NOT MET

For O=C(CO)N1CCN(CCc2ccc(Oc3nc4ccccc4s3)cc2)CC1 , is the recorded IC50 below the cut-off of 10 nM?
NOT MET

For NC(=S)NC1CCN(Cc2ccc(Oc3nc4ccccc4s3)cc2)CC1 , is the recorded IC50 below the cut-off of 10 nM?
MET

For CCN(CC)CCOc1ccc(Oc2nc3ccc(Cl)cc3s2)cc1 , is the recorded IC50 below the cut-off of 10 nM?
NOT MET

For O=C(O)CCC1CCN(CCc2ccc(Oc3nc4ccccc4s3)cc2)CC1 , is the recorded IC50 below the cut-off of 10 nM?
MET

For O=C(CN1CCN(CCOc2ccc(Oc3nc4ccccc4s3)cc2)CC1)N1CCCC1 , is the recorded IC50 below the cut-off of 10 nM?
MET

----------
Provide the recorded pIC50 for the entries that follow.
- TARGET SYSTEM: recombinant human LTA4 hydrolase (rhLTA4H) (Homo sapiens, UniProt P09960)
- ASSAY METHOD TEXT: Recombinant human LTA4 hydrolase assay for LTA4 hydrolase inhibitor activity;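 note: enzyme expressed in Sf-9 insect cells, compound preincubated 10 min with enzyme, 10 min reaction at room temperature, uninhibited reaction as positive control, enzyme-free blank as negative control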
- CONDITION DESCRIPTION: LTA4 substrate, LTB4 by immunoassay, average of one to three determinations
Structures can show the parent of a compound that is named as a salt.
// scale note: pIC50 = -log10(conc_M); give the bare number

compound c1ccc2sc(Oc3ccc(CCN(CCCc4nn[nH]n4)C4CC4)cc3)nc2c1 , pIC50 observed: 8.70

compound O=C(O)C1CC1CN(CCc1ccc(Oc2nc3ccccc3s2)cc1)C1CC1 (stereo not shown) , pIC50 observed: 8.05

compound O=C1NCCC12CCN(CCOc1ccc(Oc3nc4ccccc4s3)cc1)CC2 , pIC50 observed: 8.40

compound c1ccc2oc(Oc3ccc(OCCN4CCC4)cc3)nc2c1 , pIC50 observed: 8.00

compound c1ccc(Cn2nnnc2C2CCN(CCOc3ccc(Oc4nc5ccccc5s4)cc3)CC2)cc1 , pIC50 observed: 7.19

compound c1ccc2sc(Oc3ccc(OCCn4nnnc4C4CCNCC4)cc3)nc2c1 , pIC50 observed: 8.40

compound O=C1C[C@H](O)CN1C1CCN(Cc2ccc(Oc3nc4ccccc4s3)cc2)CC1 , pIC50 observed: 7.55

compound c1ccc2sc(Oc3ccc(CCN4CCC(c5nnn[nH]5)CC4)cc3)nc2c1 , pIC50 observed: 8.40

compound OCCC1CCCCN1Cc1ccc(Oc2nc3ccccc3s2)cc1 (stereo not shown) , pIC50 observed: 8.40

compound OC1(c2ccccc2)CCN(CCCOc2ccc(Oc3nc4ccccc4o3)cc2)CC1 , pIC50 observed: 8.15

compound O=C(O)C1CCCCN1CCc1ccc(Oc2nc3ccccc3s2)cc1 (stereo not shown) , pIC50 observed: 8.15

compound NC(=O)C1CCCN(CCc2ccc(Oc3nc4ccccc4s3)cc2)C1 (stereo not shown) , pIC50 observed: 7.77

compound CCN(CC)Cc1ccc(Oc2nc3ccccc3s2)cc1 , pIC50 observed: 8.22

compound O=C(O)CCCCCN(CCc1ccc(Oc2nc3ccccc3s2)cc1)C1CC1 , pIC50 observed: 8.40

compound OC1CCN(CCCc2ccc(Oc3nc4ccccc4o3)cc2)CC1 , pIC50 observed: 7.85

compound OC1(c2ccccc2)CCN(CCOc2ccc(Oc3nc4ccccc4[nH]3)cc2)CC1 , pIC50 observed: 8.00

compound OC1(c2ccc(Cl)cc2)CCN(CCOc2ccc(Oc3nc4ccccc4o3)cc2)CC1 , pIC50 observed: 8.30

compound Oc1ccc(N2CCN(CCOc3ccc(Oc4nc5ccccc5s4)cc3)CC2)cc1 , pIC50 observed: 7.43

compound CCN(CCc1ccc(Oc2nc3ccccc3[nH]2)cc1)C1CCCCC1 , pIC50 observed: 8.40

compound CCCN(CCc1ccc(Oc2nc3ccccc3o2)cc1)CC1CC1 , pIC50 observed: 9.00

compound OCC1CCN(Cc2ccc(Oc3nc4ccccc4s3)cc2)CC1 , pIC50 observed: 7.48

compound O=C(O)CC1CCCN(CCc2ccc(Oc3nc4ccccc4s3)cc2)C1 (stereo not shown) , pIC50 observed: 9.00

compound c1ccc2sc(Oc3ccc(OCCN4CCC(c5nnn[nH]5)CC4)cc3)nc2c1 , pIC50 observed: 7.80

compound OCC1CCCCN1Cc1ccc(Oc2nc3ccccc3s2)cc1 (stereo not shown) , pIC50 observed: 7.82

compound CN(C)CCOc1ccc(Oc2nc3ccccc3o2)cc1 , pIC50 observed: 7.77

compound O=C1C[C@@H](O)CN1C1CCN(Cc2ccc(Oc3nc4ccccc4s3)cc2)CC1 , pIC50 observed: 8.10

compound O=C(O)C1CCN(CCc2ccc(Oc3nc4ccccc4s3)cc2)CC1 , pIC50 observed: 9.00

compound O=C(O)CCN(CCc1ccc(Oc2nc3ccccc3s2)cc1)CC1CC1 , pIC50 observed: 8.70

compound O=C(O)C1CCN(CCOc2ccc(Oc3nc4ccccc4s3)cc2)CC1 [Example 18, potassium salt] , pIC50 observed: 8.22

compound c1ccc2[nH]c(Oc3ccc(CCN4CCCCC4)cc3)nc2c1 , pIC50 observed: 7.44

compound c1ccc2oc(Oc3ccc(CN4CCCCC4)cc3)nc2c1 , pIC50 observed: 8.70

compound OCC1CCN(CCOc2ccc(Oc3nc4ccccc4[nH]3)cc2)CC1 , pIC50 observed: 6.95

compound CS(=O)(=O)NC1CCN(Cc2ccc(Oc3nc4ccccc4s3)cc2)CC1 , pIC50 observed: 8.10

compound O=C1C[C@H](O)CN1C1CCN(CCc2ccc(Oc3nc4ccccc4s3)cc2)CC1 , pIC50 observed: 7.62

compound CCN(CCCN1CCCC1=O)Cc1ccc(Oc2nc3ccccc3s2)cc1 , pIC50 observed: 7.68

compound OCCC1CCN(Cc2ccc(Oc3nc4ccccc4s3)cc2)CC1 , pIC50 observed: 7.48

compound OCC1CCCN(Cc2ccc(Oc3nc4ccccc4s3)cc2)C1 (stereo not shown) , pIC50 observed: 7.22
